System: Mus musculus
ASSAY: Analgesic activity was measured on phenylquinone writhing in mice at 128 mg/kg subcutaneous dose
Format: functional
CONDITION PARAMETERS: sc
Kindly supply the reported inhibition in vivo at 128 mg/kg values for the records listed here.
One number for each entry, in %.

COMPOUND: CC(=O)Nc1ccc(S(=O)(=O)N2[C@@H]3CC=CN(C)[C@@H]32)cc1 (some centres undefined)
UNITS SYMBOL: %
inhibition in vivo at 128 mg/kg: 95
//
COMPOUND: O=S(=O)(c1ccccc1)N1[C@@H]2CC=CN[C@@H]21 (some centres undefined)
UNITS SYMBOL: %
inhibition in vivo at 128 mg/kg: 47
//
COMPOUND: CN1C=CC[C@@H]2[C@H]1N2S(=O)(=O)c1ccc(N)cc1 (some centres undefined)
UNITS SYMBOL: %
inhibition in vivo at 128 mg/kg: 97

# next compound below
Task item: # return recorded inhibition in vivo at 128 mg/kg for entry CN1C=CC[C@@H]2[C@H]1N2S(C)(=O)=O (some centres undefined)
Reply: 50
